Values from patent US8815857B2

subject-of-test: human soluble guanylate cyclase alpha 1 and beta 1 subunits (sGC) stably expressed in Chinese hamster ovary cells (Homo sapiens, UniProt Q02108+Q02153)
Construct: expressed in transfected cells; host or cells: Chinese hamster ovary cells, stably transfected
Sequence (Q02108 whole entry partner): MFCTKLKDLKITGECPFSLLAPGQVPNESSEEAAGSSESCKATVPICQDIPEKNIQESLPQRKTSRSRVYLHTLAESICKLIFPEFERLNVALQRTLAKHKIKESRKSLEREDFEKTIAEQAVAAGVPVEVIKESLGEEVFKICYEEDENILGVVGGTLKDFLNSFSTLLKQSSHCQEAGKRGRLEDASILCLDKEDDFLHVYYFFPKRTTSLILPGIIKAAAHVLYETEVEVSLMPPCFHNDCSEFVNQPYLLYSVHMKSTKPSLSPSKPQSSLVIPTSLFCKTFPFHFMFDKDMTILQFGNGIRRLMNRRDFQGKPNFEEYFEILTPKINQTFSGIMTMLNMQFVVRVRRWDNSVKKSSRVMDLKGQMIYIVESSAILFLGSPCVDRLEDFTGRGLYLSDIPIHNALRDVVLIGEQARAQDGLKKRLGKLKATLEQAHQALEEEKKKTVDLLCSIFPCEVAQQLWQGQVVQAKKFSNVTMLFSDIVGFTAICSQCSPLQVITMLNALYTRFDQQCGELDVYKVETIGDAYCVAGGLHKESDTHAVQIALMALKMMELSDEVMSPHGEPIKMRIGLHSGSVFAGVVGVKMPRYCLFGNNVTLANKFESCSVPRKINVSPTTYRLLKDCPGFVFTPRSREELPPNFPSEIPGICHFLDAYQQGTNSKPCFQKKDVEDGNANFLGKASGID
Sequence (Q02153 whole entry): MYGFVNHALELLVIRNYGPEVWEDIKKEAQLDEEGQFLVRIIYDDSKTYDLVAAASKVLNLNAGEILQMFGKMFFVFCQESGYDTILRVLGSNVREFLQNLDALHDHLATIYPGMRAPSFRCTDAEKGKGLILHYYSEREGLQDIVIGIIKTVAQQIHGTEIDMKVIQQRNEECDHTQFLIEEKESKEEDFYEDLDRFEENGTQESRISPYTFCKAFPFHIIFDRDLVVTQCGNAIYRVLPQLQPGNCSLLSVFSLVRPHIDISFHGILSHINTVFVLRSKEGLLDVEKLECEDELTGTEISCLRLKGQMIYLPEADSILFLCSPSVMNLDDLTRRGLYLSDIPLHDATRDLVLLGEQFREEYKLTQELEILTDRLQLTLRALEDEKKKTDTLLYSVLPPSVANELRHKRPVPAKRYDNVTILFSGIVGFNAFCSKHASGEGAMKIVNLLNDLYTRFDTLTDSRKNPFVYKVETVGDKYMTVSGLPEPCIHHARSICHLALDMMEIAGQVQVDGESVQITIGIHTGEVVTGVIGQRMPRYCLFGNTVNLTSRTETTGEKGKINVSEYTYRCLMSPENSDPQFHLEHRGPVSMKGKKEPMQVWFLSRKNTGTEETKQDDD
measurement-notes: sGC cellular activator assay: cGMP in CHO cells expressing human sGC, preincubated with ODQ
Format: cell-based
conditions: 40 microM ODQ preincubation, 30 min at room temperature, presence or absence of 50% human serum not given, read-out: EC50 nM, Activity of Compounds in Cellular Assay
quantity: EC50 (nM)

>>> df
                                   compound  quantity  observed
0  Cc1ccc(OCc2ccc(C(=O)N3CCCCC3)cc2C)c(-c2csc(N3C[C@H]4CC[C@@H](C3)[C@@]4(C)C(=O)O)n2)c1      EC50        15
1  Cc1ccc(OCc2c(C)cc(C(=O)N3CCCCC3)cc2C)c(-c2csc(N3C[C@H]4CC[C@@H](C3)[C@H]4C(=O)O)n2)c1      EC50        39
2  Cc1ccc(OCc2ccc(C(=O)N3CCC(CO)CC3)cc2C)c(-c2csc(N3C[C@H]4CC[C@@H](C3)[C@H]4C(=O)O)n2)c1      EC50        42
3  Cc1ccc(OCc2ccc(CN3CCOCC3)cc2C)c(-c2csc(N3C[C@H]4CC[C@@H](C3)[C@@]4(C)C(=O)O)n2)c1      EC50        96
4  Cc1ccc(OCc2ccc(C(=O)N3CCCCC3)cc2C)c(-c2csc(N3CC[C@@H](C(=O)O)[C@H]3C)n2)c1      EC50        36
5  CCOCCN(C)C(=O)c1ccc(COc2ccc(C)cc2-c2csc(N3C[C@H]4CC[C@@H](C3)[C@H]4C(=O)O)n2)c(C)c1      EC50        70
6  CNC(=O)CN(C)C(=O)c1ccc(COc2ccc(C)cc2-c2csc(N3C[C@H]4CC[C@@H](C3)[C@H]4C(=O)O)n2)c(C)c1      EC50       260
7  Cc1ccc(OCc2ccc(CN3CCN(C(=O)C4CC4)CC3)cc2C)c(-c2csc(N3CC(CC(=O)O)C3)n2)c1      EC50       140
8  Cc1ccc(OCc2ccc(CN3CCOC(C)(C)C3)cc2C#N)c(-c2csc(N3C[C@H]4CC[C@@H](C3)[C@H]4C(=O)O)n2)c1      EC50        30
9  CC[C@]1(C(=O)O)[C@@H]2CC[C@H]1CN(c1nc(-c3cc(C)ccc3OCc3ccc(C(=O)N4CCCCC4)cc3C)cs1)C2      EC50       140

1. Cc1ccc(OCc2ccc(C(=O)N3CCCCC3)cc2C)c(-c2csc(N3C[C@H]4CC[C@@H](C3)[C@@]4(F)C(=O)O)n2)c1
2. Cc1ccc(OCc2ccc(C(=O)N3CCn4cnnc4C3)cc2C)c(-c2csc(N3C[C@H]4CC[C@@H](C3)[C@H]4C(=O)O)n2)c1
3. Cc1ccc(OCc2ccc(CN3CCN4CCCC4C3)cc2C)c(-c2csc(N3CCC(C(=O)O)CC3)n2)c1 (centres unmarked)
Ask: Sequence the entries by EC50, beginning with the highest number. // list labels; follow requested order
Result: 3, 2, 1
(3: 170 nM, 2: 110 nM, 1: 75 nM)
